target: hPolεCD (E. coli), catalytic domain of DNA polymerase ε p261, CysX [4Fe-4S] cluster (63% iron) (human, UniProt Q07864 28-1194); test: BLI; 100 mM NaCl; active enzyme concentration; kon 252 mM-1 s-1, koff 41.9e-3 s-1; EMSA: 20 mM Tris-Hepes pH 7.8, 100 mM NaCl, 2% glycerol, 2 mM TCEP, 0.2 mg/mL BSA, 0.5 uM DNA, 5 min room temperature; BLI: 30 mM Tris-Hepes pH 7.8, 100 or 150; settings: protein: recombinant; tags: N-terminal His-Sumo, His-tag digested during purification; label: 5'-biotin-TEG on template (strand 1); template 5' overhang 9 nt, 3' overhang 3 nt; primer annealed at 2-fold excess
Sequence (Q07864 28-1194): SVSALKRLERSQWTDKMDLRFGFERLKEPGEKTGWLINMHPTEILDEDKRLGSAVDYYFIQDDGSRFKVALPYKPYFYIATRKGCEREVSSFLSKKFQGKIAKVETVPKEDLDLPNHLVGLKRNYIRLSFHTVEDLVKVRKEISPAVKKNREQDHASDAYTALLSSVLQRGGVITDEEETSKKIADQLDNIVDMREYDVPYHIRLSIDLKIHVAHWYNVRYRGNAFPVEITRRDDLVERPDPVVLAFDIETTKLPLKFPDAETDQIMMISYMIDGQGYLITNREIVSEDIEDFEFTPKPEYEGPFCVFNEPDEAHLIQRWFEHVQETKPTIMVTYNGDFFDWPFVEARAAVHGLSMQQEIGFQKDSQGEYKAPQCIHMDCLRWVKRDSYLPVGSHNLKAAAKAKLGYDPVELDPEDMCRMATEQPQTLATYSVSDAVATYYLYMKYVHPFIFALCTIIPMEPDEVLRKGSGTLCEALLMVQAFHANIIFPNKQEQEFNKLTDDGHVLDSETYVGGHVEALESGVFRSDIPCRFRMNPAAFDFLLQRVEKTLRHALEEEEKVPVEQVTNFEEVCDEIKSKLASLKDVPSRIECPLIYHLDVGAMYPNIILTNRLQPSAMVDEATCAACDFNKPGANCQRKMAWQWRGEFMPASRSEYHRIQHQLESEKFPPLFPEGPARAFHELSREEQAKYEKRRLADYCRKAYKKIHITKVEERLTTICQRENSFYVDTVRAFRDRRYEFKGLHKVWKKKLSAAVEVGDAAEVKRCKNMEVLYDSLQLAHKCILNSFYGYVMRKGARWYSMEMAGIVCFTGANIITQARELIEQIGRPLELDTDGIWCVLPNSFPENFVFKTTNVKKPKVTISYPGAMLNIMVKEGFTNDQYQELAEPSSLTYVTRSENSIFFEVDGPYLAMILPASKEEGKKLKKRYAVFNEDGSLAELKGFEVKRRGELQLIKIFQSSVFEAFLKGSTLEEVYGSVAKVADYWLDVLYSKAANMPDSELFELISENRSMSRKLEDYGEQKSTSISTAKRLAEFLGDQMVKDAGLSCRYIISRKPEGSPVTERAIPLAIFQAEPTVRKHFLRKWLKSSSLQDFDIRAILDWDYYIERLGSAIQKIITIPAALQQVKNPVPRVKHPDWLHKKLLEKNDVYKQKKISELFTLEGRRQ
reported_endpoint: Kd (nM)

[
  {
    "binder": "Octet 23-mer template / 11-mer 3'-ddC primer (dsDNA, 3'-dideoxycytidine on primer (strand 2)) DNA 1: AATACATAAGCGCTCCAGGCAAT DNA 2: GCCTGGAGCGC",
    "test_value": 167
  }
]
